target: IRAK4 (Homo sapiens); construct: endogenous in cells; host or cells: THP-1 cells; assay: LVL THP1 HTRF (THP1 Homogeneous Time Resolved Fluorescence); type: cell-based; settings: THP1 cells, 18 h incubation with compound
experimental endpoint: LVL THP1 HTRF YMIN (%)

Sample records with LVL THP1 HTRF YMIN:
[[record]]
compound = "C[C@H](C#N)Nc1cc(-n2ncc3cncnc32)ncc1-n1cc(C2CCC(CCN3CCN(c4ccc([C@@]5(C)CCC(=O)NC5=O)cc4)CC3)CC2)nn1 (stereo partly shown) [P-225]"
readout_value = 3.5

[[record]]
compound = "CC[C@@H]1CN(CC[C@H]2CC[C@H](c3cn(-c4cnc(-n5ncc6cc(C#N)c(N)nc65)cc4N[C@H](C)C#N)nn3)CC2)CCN1c1ccc(N2CCC(=O)NC2=O)cn1 [P-446]"
readout_value = "−1.4"

[[record]]
compound = "COc1cc([C@@]2(C)CCC(=O)NC2=O)ccc1N1CCN(CC[C@H]2CC[C@H](c3cn(-c4cnc(-n5ncc6cc(C#N)c(N)nc65)cc4N[C@H](C)C#N)nn3)CC2)C[C@@H]1C (single isomer, unassigned) [P-302]"
readout_value = 3.3

[[record]]
compound = "C[C@H](C#N)Nc1cc(-n2ncc3cc(C#N)cnc32)ncc1-n1cc([C@H]2CC[C@H](CCN3CC[C@H]4[C@@H]3CCN4c3ccc([C@@]4(C)CCC(=O)NC4=O)nc3)CC2)nn1 (single isomer, unassigned) [P-287]"
readout_value = 51.0

[[record]]
compound = "C[C@H](C#N)Nc1cc(Nc2ncc(C#N)cc2Cl)ncc1-n1cc([C@H]2CC[C@H](CCN3CCN(c4ccc([C@@]5(C)CCC(=O)NC5=O)cc4)CC3)CC2)nn1 [P-297]"
readout_value = 6.5


a: C[C@H](C#N)Nc1cc(-n2ncc3cc(C#N)cnc32)ncc1-n1cc([C@H]2CC[C@H](CCN3CCN(c4ccc(N5CCC(=O)NC5=O)cc4)C[C@H]3C)CC2)nn1 [P-459]
b: C[C@H](C#N)Nc1cc(-n2ncc3cc(C#N)cnc32)ncc1-n1cc([C@H]2CC[C@H](CCN3CCC(c4ccc(N5CCC(=O)NC5=O)cc4)C(F)C3)CC2)nn1 (single isomer, unassigned) [P-400]
c: C[C@H](C#N)Nc1cc(-n2ncc3cc(C#N)cnc32)ncc1-n1cc([C@H]2CC[C@H](CCN3CC[C@H](c4ccc([C@@]5(F)CCC(=O)NC5=O)cc4)C[C@H]3C)CC2)nn1 (single isomer, unassigned) [P-326]
d: C[C@H](C#N)Nc1cc(-n2ncc3cc(C#N)cnc32)ncc1-n1cc([C@H]2CC[C@H](CCN3CCN(c4ccc(N5CCC(=O)NC5=O)c(Cl)c4)[C@H](C)C3)CC2)nn1 [P-437]
e: C[C@H](C#N)Nc1cc(-n2ncc3cc(C#N)cnc32)ncc1-n1cc([C@H]2CC[C@](O)(CCN3CCN(c4ccc(C5CCC(=O)NC5=O)cc4)CC3)CC2)nn1 (stereo partly shown) [P-226]
Ask | Sort by LVL THP1 HTRF YMIN, descending. Kindly provide the labels arranged according to the requested ordering.
Reply | b, e, c, d, a
(b: 7.8%, e: 2.1%, c: 0.3%, d: 0.0%, a: −0.5%)

====

target: IRAK4 (Homo sapiens, UniProt Q9NWZ3); construct: endogenous in cells; host or cells: THP-1 cells; experiment: ALE THP1 HTRF (Advanced Lipoxidation End Product THP1 Homogeneous Time Resolved Fluorescence); format: cell-based; settings: THP1 cells
Sequence (Q9NWZ3 whole entry): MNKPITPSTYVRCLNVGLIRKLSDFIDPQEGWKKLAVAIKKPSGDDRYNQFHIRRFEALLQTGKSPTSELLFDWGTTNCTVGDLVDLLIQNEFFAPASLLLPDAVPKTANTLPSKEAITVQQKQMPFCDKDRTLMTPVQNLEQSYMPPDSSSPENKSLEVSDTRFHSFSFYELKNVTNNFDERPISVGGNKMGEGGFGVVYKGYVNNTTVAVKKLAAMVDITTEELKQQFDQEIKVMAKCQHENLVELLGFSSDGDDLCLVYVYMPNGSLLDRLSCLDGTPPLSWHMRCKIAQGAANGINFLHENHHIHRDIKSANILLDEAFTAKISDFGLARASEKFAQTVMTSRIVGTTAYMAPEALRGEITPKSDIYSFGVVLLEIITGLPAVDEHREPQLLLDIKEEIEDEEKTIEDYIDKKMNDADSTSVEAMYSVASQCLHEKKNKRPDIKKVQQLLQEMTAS
experimental endpoint: ALE THP1 HTRF YMIN (%)

Sample records with ALE THP1 HTRF YMIN:
[[record]]
molecule = "N#Cc1cnc2c(cnn2-c2cc(NC3CCCC3)c(-c3cn([C@H]4CC[C@H](C(=O)N5CCC(C(=O)Nc6ccc(N7CCC(=O)NC7=O)cc6)CC5)CC4)nn3)cn2)c1"
readout_value = 11.4

[[record]]
molecule = "N#Cc1cnc2c(cnn2-c2cc(N[C@H]3CCC[C@@H]3O)c(C(=O)NC3CCC(CCN4CCN(c5ccc(C6CCC(=O)NC6=O)cc5)CC4)CC3)cn2)c1 (some centres unmarked)"
readout_value = 8.3


I: N#Cc1cnc2c(cnn2-c2cc(NC3CCCC3)c(-n3cc(C4CCC(NC(=O)C5CCN(c6ccc7c(c6)C(=O)N(C6CCC(=O)NC6=O)C7)CC5)CC4)nn3)cn2)c1 (centres unmarked)
II: C[C@H](C#N)Nc1cc(-n2ncc3cc(C#N)c(N)nc32)ncc1C(=O)N[C@H]1CC[C@H](CCN2CCC(c3ccc(C4CCC(=O)NC4=O)cc3)CC2)CC1 (some centres unmarked)
Ask | Looking only at measured ALE THP1 HTRF YMIN, which entry is lower, I or II ? // output: label of the selected item
Reply | II

====

molecular target: IRAK4 (Homo sapiens); construct: endogenous in cells; host or cells: THP-1 cells; experiment: LVL THP1 HTRF (THP1 Homogeneous Time Resolved Fluorescence); format: cell-based; details: THP1 cells, 18 h incubation with compound
experimental endpoint: LVL THP1 HTRF YMIN (%)

Sample records with LVL THP1 HTRF YMIN:
[[record]]
compound = "C[C@H](C#N)Nc1cc(-n2ncc3cc(C#N)cnc32)ncc1-n1cc([C@H]2CC[C@H](CCN3CC[C@H]4[C@@H]3CCN4c3ccc(N4CCC(=O)NC4=O)c(Cl)c3)CC2)nn1 (single isomer, unassigned) [P-478]"
readout_value = 17.1

[[record]]
compound = "C[C@H](C#N)Nc1cc(Nc2ncc(C#N)cc2Cl)ncc1-n1cc([C@H]2CC[C@H](CCN3CCN(c4ccc(N5CCC(=O)NC5=O)cc4)[C@@H]4CCC[C@@H]43)CC2)nn1 (single isomer, unassigned) [P-506]"
readout_value = 65.39

[[record]]
compound = "C[C@H](C#N)Nc1cc(-n2ncc3cc(C#N)cnc32)ncc1-n1cc([C@H]2CC[C@H](CCN3CCN(c4ccc(N5CCC(=O)NC5=O)cn4)[C@@H](C)C3)CC2)nn1 [P-357]"
readout_value = 26.7

[[record]]
compound = "CC1CN(CC[C@H]2CC[C@H](c3cn(-c4cnc(-n5ncc6cc(C#N)cnc65)cc4N[C@H](C)C#N)nn3)CC2)CCC1c1ccc([C@@]2(F)CCC(=O)NC2=O)cc1 (single isomer, unassigned) [P-332]"
readout_value = 20.7


P: C[C@H](C#N)Nc1cc(-n2ncc3cc(C#N)cnc32)ncc1-n1cc([C@H]2CC[C@H](CCN3CCC(n4cc(C5CCC(=O)NC5=O)cn4)CC3)CC2)nn1 (stereo partly shown) [P-346]
Q: C[C@H](C#N)Nc1cc(-n2ncc3cc(C#N)cnc32)ncc1-c1cn([C@H]2CC[C@H](CCN3CCN(c4ccc(N5CCC(=O)NC5=O)cc4)[C@H](C)C3)CC2)nn1 [P-501]
R: C[C@H](C#N)Nc1cc(-n2ncc3cc(C#N)cnc32)ncc1-n1cc([C@H]2CC[C@H](CCN3CCC(c4ccc(N5CCC(=O)NC5=O)cc4)C(F)(F)C3)CC2)nn1 (single isomer, unassigned) [P-420]
S: C[C@H](C#N)Nc1cc(-n2ncc3cc(C#N)cnc32)ncc1-n1cc([C@H]2CC[C@H](CCN3CCCN(c4ccc(N5CCC(=O)NC5=O)cc4)CC3)CC2)nn1 [P-355]
Ask | Arrange the 4 compounds by rising LVL THP1 HTRF YMIN, starting with the smallest. Kindly provide the labels arranged according to the requested ordering.
Reply | Q, R, P, S

A: C[C@]1(c2ccc(N3CCN(CC[C@H]4CC[C@H](c5cn(-c6cnc(-n7ncc8cc(C#N)c(N)nc87)cc6NC6(C#N)CC6)nn5)CC4)CC3)cc2)CCC(=O)NC1=O [P-246]
B: C[C@H](C#N)Nc1cc(-n2ncc3cc(C#N)cnc32)ncc1-n1cc([C@H]2CC[C@H](CCN3CCN(c4ccc(N5CCC(=O)NC5=O)cc4)[C@H](C)C3)CC2)nn1 [P-358]
Ask | Compare A and B by numeric LVL THP1 HTRF YMIN and name the larger one. // output: label of the selected item
Reply | A
(A: 4.1%, B: 0.6%)

====

molecular target: IRAK4 (Homo sapiens); construct: endogenous in cells; host or cells: THP-1 cells; experiment: LVL THP1 HTRF (THP1 Homogeneous Time Resolved Fluorescence); assay type: cell-based; conditions: THP1 cells, 18 h incubation with compound, read-out: LVL THP1 HTRF EC50
experimental endpoint: DC50 (nM)

[[record]]
compound = "C[C@H](C#N)Nc1cc(-n2ncc3cc(C#N)cnc32)ncc1C(=O)N[C@H]1CC[C@H](CCN2CC[C@H]3[C@@H]2CCN3c2ccc([C@@]3(C)CCC(=O)NC3=O)cc2)CC1 (single isomer, unassigned) [P-492]"
readout_value = 35

[[record]]
compound = "C[C@H](C#N)Nc1cc(-n2ncc3cc(C#N)cnc32)ncc1-n1cc([C@H]2CC[C@H](CCN3CCC(n4ccc(C5CCC(=O)NC5=O)cc4=O)CC3)CC2)nn1 (some centres unmarked) [P-350]"
readout_value = 2.2

[[record]]
compound = "Cc1cc(C2CCN(CC[C@H]3CC[C@H](c4cn(-c5cnc(-n6ncc7cc(C#N)cnc76)cc5N[C@H](C)C#N)nn4)CC3)CC2)ccc1N1CCC(=O)NC1=O [P-336]"
readout_value = 25.1


I: C[C@H](C#N)Nc1cc(-n2ncc3cc(C#N)cnc32)ncc1-n1cc(C2CCC(CCN3[C@@H](C)CN(c4ccc([C@@]5(C)CCC(=O)NC5=O)cc4)C[C@@H]3C)CC2)nn1 (some centres unmarked) [P-238]
II: C[C@H](C#N)Nc1cc(-n2ncc3cc(C#N)cnc32)ncc1-n1cc([C@H]2CC[C@H](CCN3CCCN(c4ccc(C5CCC(=O)NC5=O)cc4)CC3)CC2)nn1 (some centres unmarked) [P-354]
Ask | Looking only at measured DC50, which entry is lower, I or II ? // output: label of the selected item
Reply | II
